Taken from patent US4349545A.

tested on: Streptococcus pyogenes A 561
property-label: MIC

>  <compound>
CC[C@H]1OC(=O)[C@H](C)[C@@H](O[C@H]2C[C@@](C)(OC)[C@@H](O)[C@H](C)O2)[C@H](C)[C@@H](O[C@@H]2O[C@H](C)C[C@H](N(C)C)[C@H]2O)[C@](C)(O)C[C@@H](C)C(=NOC(C)CN(CC)CC)[C@H](C)[C@@H](O)[C@]1(C)O (stereo partly shown) [Example 46]

>  <property-label>
MIC

>  <value>
≤ 0.01 µg/mL

$$$$
>  <compound>
CC[C@H]1OC(=O)[C@H](C)[C@@H](O[C@H]2C[C@@](C)(OC)[C@@H](O)[C@H](C)O2)[C@H](C)[C@@H](O[C@@H]2O[C@H](C)C[C@H](N(C)C)[C@H]2O)[C@](C)(O)C[C@@H](C)C(=NOCSc2ccccc2)[C@H](C)[C@@H](O)[C@]1(C)O [Example 28]

>  <property-label>
MIC

>  <value>
0.05 µg/mL

$$$$
>  <compound>
CC[C@H]1OC(=O)[C@H](C)[C@@H](O[C@H]2C[C@@](C)(OC)[C@@H](O)[C@H](C)O2)[C@H](C)[C@@H](O[C@@H]2O[C@H](C)C[C@H](N(C)C)[C@H]2O)[C@](C)(O)C[C@@H](C)C(=NOCC2CO2)[C@H](C)[C@@H](O)[C@]1(C)O (stereo partly shown) [Example 47]

>  <property-label>
MIC

>  <value>
0.05 µg/mL

$$$$
>  <compound>
CC[C@H]1OC(=O)[C@H](C)[C@@H](O[C@H]2C[C@@](C)(OC)[C@@H](O)[C@H](C)O2)[C@H](C)[C@@H](O[C@@H]2O[C@H](C)C[C@H](N(C)C)[C@H]2O)[C@](C)(O)C[C@@H](C)C(=NOCOCCN)[C@H](C)[C@@H](O)[C@]1(C)O [Example 24]

>  <property-label>
MIC

>  <value>
≤ 0.01 µg/mL

$$$$
